- target system: Tyrosine-protein phosphatase non-receptor type 1 (Rattus norvegicus) (UniProt P20417)
- Sequence (P20417 whole entry): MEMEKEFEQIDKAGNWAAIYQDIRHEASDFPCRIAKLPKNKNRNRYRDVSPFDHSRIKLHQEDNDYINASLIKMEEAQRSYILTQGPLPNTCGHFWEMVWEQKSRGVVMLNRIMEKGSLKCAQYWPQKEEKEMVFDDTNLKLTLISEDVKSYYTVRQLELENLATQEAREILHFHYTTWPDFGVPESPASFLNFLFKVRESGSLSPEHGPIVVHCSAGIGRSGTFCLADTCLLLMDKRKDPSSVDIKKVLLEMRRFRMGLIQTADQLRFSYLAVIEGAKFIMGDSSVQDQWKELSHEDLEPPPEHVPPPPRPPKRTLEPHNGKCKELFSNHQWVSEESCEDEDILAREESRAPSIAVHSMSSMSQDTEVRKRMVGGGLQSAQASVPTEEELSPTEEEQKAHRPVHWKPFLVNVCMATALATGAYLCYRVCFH
- assay explanation: Inhibition of PTPase activity using recombinant Protein-tyrosine phosphatase 1B as the enzyme and IR-triphosphopeptide as substrate at 50 uM
experimental readout: inhibition (%)
Dear colleague, please return just the value in %, with no unit written.

[in] Query (molecule): CC/C(=C/Cn1oc(=O)[nH]c1=O)c1cccc(OCc2nc(-c3ccc(C(F)(F)F)cc3)oc2C)c1 ; field requested: inhibition
[out] 80

[in] What measured inhibition goes with C/C(=C\C=C\Cn1oc(=O)[nH]c1=O)c1cccc(OCc2nc(-c3ccccc3)oc2C)c1 ?
[out] 1.4

[in] Which inhibition is listed for CCC/C(=C\Cn1oc(=O)[nH]c1=O)c1cccc(OCc2nc(-c3ccc(C(F)(F)F)cc3)oc2C)c1 ?
[out] 2

[in] # query: inhibition of entry CC/C(=C\Cn1oc(=O)[nH]c1=O)c1cccc(OCc2nc(-c3ccc(C(F)(F)F)cc3)oc2C)c1
[out] 90

* * *

- target system: Tyrosine-protein phosphatase non-receptor type 1 (Rattus norvegicus, UniProt P20417)
- assay explanation: Inhibition of PTPase activity using recombinant Protein-tyrosine phosphatase 1B as the enzyme and IR-triphosphopeptide as substrate
experimental readout: pIC50
In plain terms, pIC50 is the concentration in mol/L turned into minus its base-10 logarithm.

[in] Which pIC50 is reported with Tyrosine-protein phosphatase non-receptor type 1 (Rattus norvegicus, UniProt P20417) for this entry: CCCC/C(=C\Cn1oc(=O)[nH]c1=O)c1cccc(OCc2cc(Cl)cc(Cl)c2)c1 ?
[out] 5.74

* * *

- target system: Tyrosine-protein phosphatase non-receptor type 1 (Rattus norvegicus)
- assay explanation: Inhibition of PTPase activity using recombinant r-PTP1B and IR-triphosphopeptide as substrate; ND is no data.
experimental readout: IC50

In [3]: df
Out[3]:
                           structure_string                             target_system  experimental_readout      assay_value
0  CC/C(=C\c1cccc(OCc2nc(-c3ccc(C(F)(F)F)cc3)oc2C)c1)n1oc(=O)[nH]c1=O  Tyrosine-protein phosphatase non-receptor type 1 (Rattus norvegicus)                  IC50  Not significant
1  CCC/C(=C/Cn1oc(=O)[nH]c1=O)c1cccc(OCc2nc(-c3ccc(C(F)(F)F)cc3)oc2C)c1  Tyrosine-protein phosphatase non-receptor type 1 (Rattus norvegicus)                  IC50  Not significant
2  Cc1oc(-c2ccc(C(F)(F)F)cc2)nc1COc1ccc2oc(Cn3oc(=O)[nH]c3=O)cc2c1  Tyrosine-protein phosphatase non-receptor type 1 (Rattus norvegicus)                  IC50  Not significant
3  C/C(=C/C=C/Cn1oc(=O)[nH]c1=O)c1cccc(OCc2nc(-c3ccccc3)oc2C)c1  Tyrosine-protein phosphatase non-receptor type 1 (Rattus norvegicus)                  IC50  Not significant

* * *

- target system: UniProt P18031
- Sequence (P18031 whole entry): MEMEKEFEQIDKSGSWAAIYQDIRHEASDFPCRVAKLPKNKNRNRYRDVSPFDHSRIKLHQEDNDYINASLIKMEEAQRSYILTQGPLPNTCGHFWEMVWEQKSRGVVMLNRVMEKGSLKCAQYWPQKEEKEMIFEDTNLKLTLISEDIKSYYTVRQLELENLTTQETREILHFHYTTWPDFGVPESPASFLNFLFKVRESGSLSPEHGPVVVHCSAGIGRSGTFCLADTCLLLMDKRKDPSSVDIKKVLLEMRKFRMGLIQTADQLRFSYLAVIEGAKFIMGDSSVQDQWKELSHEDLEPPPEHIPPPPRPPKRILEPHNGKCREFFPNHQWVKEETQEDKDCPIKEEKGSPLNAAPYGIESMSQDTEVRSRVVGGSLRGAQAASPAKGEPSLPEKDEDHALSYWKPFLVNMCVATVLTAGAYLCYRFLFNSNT
- assay explanation: Concentration required to inhibit PTPase activity, recombinant Protein Tyrosine Phosphatase 1b as the enzyme at a concentration 2.5 uM.
experimental readout: IC50
Could you kindly put the unit after your number?

[in] Find the recorded IC50 belonging to C/C(=C\Cn1oc(=O)[nH]c1=O)c1cccc(OCc2ccccn2)c1 and report it.
[out] 9 µM
